Tested on: CAKI-1 renal
Assay: NCI-60 one-dose screen, 48 h
Conditions: 10 µM unless noted
Description: Growth inhibition of the CAKI-1 human tumor cell line is measured as a screen for anti-cancer activity. Cells are grown in 96 well plates and exposed to the test compound for 48 hours. Compounds are tested at a single concentration, which is 10^-5 M for most compounds. The reported endpoint is percent growth (GI% or GIPRCNT), where numbers from 0 - 100% represent growth inhibition, and numbers from -100% - 0 represent cell death. For example, a value of 40 represents 60% growth inhibition. […]
About 83,000 compounds went through this panel and 20% of them were active in at least one assay; those are over-represented in the sample as a whole. Calls of active or inactive are those of the source. The calls were made as follows: active = growth percent below 10; inactive = the rest.
Outcome codes: active, inactive

>>> assignedlabel("COc1cccc(Nc2ncnn3ccc(CN4CC[C@@H](N)[C@H](O)C4)c23)c1")
"active"
>>> assignedlabel("CN1CCN(c2ccc(C(=O)Nc3n[nH]c4ccc(Cc5cc(F)cc(F)c5)cc34)c(NC3CCOCC3)c2)CC1")
"active"
>>> assignedlabel("COC(=O)[C@H](Cc1ccc(O)cc1)NC(=O)[C@@H](OC)[C@@H]1Cc2cc3cc(OC4CC(OC5CC(O)C(O)C(C)O5)C(O)C(C)O4)c(C)c(O)c3c(O)c2C(=O)[C@H]1OC1CC(OC2CC(OC3CC(C)(O)C(O)C(C)O3)C(O)C(C)O2)C(O)C(C)O1 (stereo partly drawn)")
"inactive"

FYI, the data here is from PubChem BioAssay (NCI).
